- System: Nucleic Acid
- assay_name: Binding affinity to Trypanosoma brucei rhodesiense DNA
- Format: nucleic-acid assay
Active and inactive are the calls of the source. The rule behind the calls is not given here.
Outcome codes: 1 for active, 0 for inactive

smiles_input	study_target	category_label
O=S(=O)(c1ccc(NC2=NCCN2)cc1)c1ccc(NC2=NCCN2)cc1	Nucleic Acid	0
N=C(N)Nc1ccc(C(=O)c2ccc(NC(=N)N)cc2)cc1	Nucleic Acid	1
c1cc(Nc2ccc(NC3=NCCN3)cc2)ccc1NC1=NCCN1	Nucleic Acid	1
N=C(N)Nc1ccc(N2CCN(c3ccc(NC(=N)N)cc3)CC2)cc1	Nucleic Acid	1
N=C(N)Nc1ccc(S(=O)(=O)c2ccc(NC(=N)N)cc2)cc1	Nucleic Acid	0
c1cc(N2CCN(c3ccc(NC4=NCCN4)cc3)CC2)ccc1NC1=NCCN1	Nucleic Acid	1
N=C(N)Nc1ccc(Cc2ccc(NC(=N)N)cc2)cc1	Nucleic Acid	1
c1cc(NC2=NCCN2)ccc1Cc1ccc(NC2=NCCN2)cc1	Nucleic Acid	1
N=C(N)Nc1ccc(Nc2ccc(NC(=N)N)cc2)cc1	Nucleic Acid	1
N=C(N)c1ccc(OCCCCCOc2ccc(C(=N)N)cc2)cc1	Nucleic Acid	1
